System: Mycobacterium tuberculosis H37Rv
TEST DESCRIPTION: Microplate Alamar Blue assay (MABA) MIC, M. tuberculosis
Assay type: cell-based
MEASUREMENT SETUP: read-out: MIC Mycobacterium tuberculosis H37Rv
Measured MIC, listed per entry.
MEASURED QUANTITY: MIC (µg/mL)

>>> recorded_result("Cc1ccc(F)cc1NC(=O)C(Cc1ccccc1)NC(=O)c1cccc2[nH]ccc12 (stereo not drawn) [IX-80]")
1.56
>>> recorded_result("O=C(NC(Cc1ccccc1)C(=O)Nc1cccc2cnccc12)c1cccs1 (stereo not drawn) [IX-30]")
3.12
>>> recorded_result("Cc1ccccc1C(=O)NC(Cc1ccccc1)C(=O)Nc1cccc2nnn(C)c12 (stereo not drawn) [IX-301]")
6.25
>>> recorded_result("O=C(NC(Cc1ccc(O)cc1)C(=O)Nc1cccc2c1OCCO2)c1cccs1 (stereo not drawn) [IX-34]")
6.25
>>> recorded_result("O=C(N[C@H](Cc1ccccc1)C(=O)Nc1cc(F)ccc1N1CCNCC1)c1ccccc1F [IX-214a]")
0.78
>>> recorded_result("O=C(NC(Cc1ccccc1)C(=O)Nc1ccccc1OC(F)F)c1ccccc1Cl (stereo not drawn) [IX-119]")
3.12
>>> recorded_result("O=C(NC(Cc1ccc(O)cc1)C(=O)Nc1ccccc1N1CCOCC1)c1cccs1 (stereo not drawn) [IX-183]")
1.56
>>> recorded_result("O=C(N[C@H](Cc1ccccc1)C(=O)Nc1cc(Cl)ccc1N1CCNCC1)c1ccccc1F [IX-274a]")
0.78
>>> recorded_result("O=C(NC(Cc1ccccc1)C(=O)Nc1ccccc1OC(F)F)c1cccs1 (stereo not drawn) [IX-100]")
6.25

----------
Measured MCC mammalian cells Vero E6 ATCC CRL1586, listed per entry.
Tested on: Vero E6 ATCC CRL1586 cells
TEST DESCRIPTION: Mammalian-cell cytotoxicity, minimal cytotoxic concentration (CellTiter96)
Assay type: cell-based
MEASURED QUANTITY: MCC mammalian cells Vero E6 ATCC CRL1586

>>> recorded_result("O=C(NC(Cc1ccccc1)C(=O)Nc1ccccc1N1CCCC1)c1ccccc1 (centres unmarked)")
">100 µg/mL"
>>> recorded_result("Cc1cccc(C(=O)NC(Cc2ccccc2)C(=O)Nc2ccccc2C)c1 (centres unmarked)")
">100 µg/mL"
>>> recorded_result("O=C(NC(Cc1ccc(O)cc1)C(=O)Nc1cccc2c1OCCO2)c1ccccc1 (centres unmarked)")
">100 µg/mL"
>>> recorded_result("O=C(NC(Cc1ccccc1)C(=O)Nc1cccc2c1OCCO2)c1ccccc1 (centres unmarked)")
">40 µg/mL"
>>> recorded_result("Cc1c(NC(=O)C(Cc2ccccc2)NC(=O)c2ccccc2)cccc1OC(C)C (centres unmarked)")
">100 µg/mL"

----------
Tested on: Mycobacterium tuberculosis H37Rv
TEST DESCRIPTION: Microplate Alamar Blue assay (MABA) MIC, M. tuberculosis
Assay type: cell-based
MEASUREMENT SETUP: read-out: MIC Mycobacterium tuberculosis H37Rv
MEASURED QUANTITY: MIC

>>> recorded_result("Cc1c(NC(=O)C(Cc2ccccc2)NC(=O)c2ccccc2)cccc1-n1ccnn1 (stereo not drawn) [I-215]")
"> 50 µg/mL"
>>> recorded_result("Cc1ccc(Cl)cc1NC(=O)[C@H](Cc1ccccc1)NC(=O)c1ccccc1F [IX-55b]")
"> 50 µg/mL"
>>> recorded_result("O=C(NC(Cc1ccccc1)C(=O)Nc1ccccc1-n1cnnn1)c1ccccc1 (stereo not drawn) [I-225]")
"> 50 µg/mL"

----------
Tested on: Mycobacterium smegmatis ATCC 19420
TEST DESCRIPTION: Broth microdilution MIC, M. smegmatis
Type: cell-based
MEASUREMENT SETUP: Mycolicibacterium smegmatis, ATCC19420, M. smegmatis ATCC 19420; read-out: MIC Mycobacterium smegmatis ATCC 19420
Binary label based on MIC with cut-off 0.4 mg/L: below gives MET, not below gives NOT MET.

>>> classification("O=C(NC(Cc1ccccc1)C(=O)Nc1cccc2scnc12)c1ccccc1 (stereo not shown) [IX-235]")
"NOT MET"
>>> classification("Cc1ccccc1NC(=O)C(Cc1ccccc1)NC(=O)c1ccccn1 (stereo not shown) [II-12]")
"NOT MET"
>>> classification("Cc1ccccc1C(=O)NC(Cc1ccccc1)C(=O)Nc1ccccc1N1CCOCC1 (stereo not shown) [IX-153]")
"MET"
>>> classification("CC(=O)Oc1ccc(CC(NC(=O)c2ccccc2F)C(=O)Nc2ccccc2N2CCOCC2)cc1 (stereo not shown) [IX-180]")
"MET"
>>> classification("Cc1ccccc1C(=O)NC(Cc1ccccc1)C(=O)Nc1ccccc1N1CCNCC1 (stereo not shown) [IX-212]")
"MET"
>>> classification("O=C(NC(Cc1ccccc1)C(=O)Nc1ccccc1N1CCCC1)c1cccs1 (stereo not shown) [IX-105]")
"NOT MET"
>>> classification("Cc1ccccc1C(=O)NC(Cc1ccccc1)C(=O)Nc1cc(F)ccc1N1CCOCC1 (stereo not shown) [IX-159]")
"MET"
>>> classification("Cc1ccc(F)cc1NC(=O)C(Cc1ccccc1)NC(=O)c1cccc2[nH]ccc12 (stereo not shown) [IX-80]")
"MET"
>>> classification("Cc1ccccc1C(=O)NC(Cc1ccccc1)C(=O)Nc1ccccc1OC(F)F (stereo not shown) [IX-120]")
"MET"
>>> classification("O=C(NC(Cc1ccccc1)C(=O)Nc1cccc2ncccc12)c1ccccc1 (stereo not shown) [IX-4]")
"NOT MET"
>>> classification("O=C(NC(Cc1ccccc1)C(=O)Nc1cc(F)ccc1N1CCOCC1)c1ccccc1 (stereo not shown) [IX-157]")
"MET"
>>> classification("COc1ccccc1NC(=O)C(Cc1ccccc1)NC(=O)c1cccs1 (stereo not shown) [IX-29]")
"MET"
>>> classification("O=C(NC(Cc1ccccc1)C(=O)Nc1cccc2c1OC(F)(F)O2)c1ccccc1F (stereo not shown) [IX-122]")
"NOT MET"

----------
Tested on: Mycobacterium tuberculosis H37Rv
TEST DESCRIPTION: Microplate Alamar Blue assay (MABA) MIC, M. tuberculosis
Type: cell-based
MEASUREMENT SETUP: read-out: MIC Mycobacterium tuberculosis H37Rv
Binary label based on MIC with cut-off 10 µg/mL: below gives YES, not below gives NO.

>>> classification("CCc1ccccc1C(=O)NC(Cc1ccccc1)C(=O)Nc1ccccc1C (centres unmarked)")
"NO"
>>> classification("Cc1ccccc1NC(=O)C(Cc1ccccc1)NC(=O)c1ccccc1C (centres unmarked)")
"NO"
>>> classification("O=C(NC(Cc1ccccc1)C(=O)Nc1cccc2c1OCO2)c1ccccc1F (centres unmarked)")
"YES"
>>> classification("O=C(NC(Cc1ccccc1)C(=O)Nc1cccc2[nH]ccc12)c1cccs1 (centres unmarked)")
"NO"
>>> classification("Cc1ccc(Br)cc1NC(=O)C(Cc1ccc(O)cc1)NC(=O)c1ccccc1 (centres unmarked)")
"NO"
>>> classification("O=C(NC(Cc1ccccc1)C(=O)Nc1cc(F)ccc1N1CCNCC1)c1ccccc1Br (centres unmarked)")
"YES"
>>> classification("Cc1ccc(Br)cc1NC(=O)C(Cc1ccccc1)NC(=O)c1ccccc1 (centres unmarked)")
"NO"
>>> classification("Cc1ccccc1C(=O)NC(Cc1ccccc1)C(=O)Nc1ccccc1N1CCNCC1 (centres unmarked)")
"YES"
>>> classification("O=C(NC(Cc1ccccc1)C(=O)Nc1cc(F)cc2ncccc12)c1ccccc1 (centres unmarked)")
"YES"
>>> classification("Cc1ccccc1C(=O)NC(Cc1ccccc1)C(=O)Nc1cccc2ncccc12 (centres unmarked)")
"NO"
>>> classification("O=C(NC(Cc1ccc(O)cc1)C(=O)Nc1cc(F)ccc1N1CCNCC1)c1cccs1 (centres unmarked)")
"YES"
>>> classification("Cc1ccccc1NC(=O)C(Cc1ccccc1)NC(=O)c1cccnc1 (centres unmarked)")
"NO"
>>> classification("CN1CCN(c2ccccc2NC(=O)C(Cc2ccccc2)NC(=O)c2ccccc2)CC1 (centres unmarked)")
"NO"
>>> classification("O=C(NC(Cc1ccccc1)C(=O)Nc1cccc2ccsc12)c1ccccc1 (centres unmarked)")
"YES"

----------
Test system: Vero E6 ATCC CRL1586 cells
TEST DESCRIPTION: Mammalian-cell cytotoxicity, minimal cytotoxic concentration (CellTiter96)
Assay type: cell-based
Respond with 1.0 for MCC mammalian cells Vero E6 ATCC CRL1586 values of 40 µg/mL and above, 0.0 for values below.

>>> classification("COc1ccccc1NC(=O)C(Cc1ccc(O)cc1)NC(=O)c1cccs1 (centres unmarked)")
1.0
>>> classification("Cc1c(NC(=O)C(Cc2ccccc2)NC(=O)c2ccccc2)cccc1C(F)(F)F (centres unmarked)")
0.0
>>> classification("O=C(NC(Cc1ccccc1)C(=O)Nc1cccc2c1OCCO2)c1cccs1 (centres unmarked)")
0.0
>>> classification("O=C(NC(Cc1ccccc1)C(=O)Nc1cccc2nc[nH]c12)c1ccccc1F (centres unmarked)")
1.0
>>> classification("O=C(NC(Cc1ccccc1)C(=O)Nc1cc(F)ccc1N1CCNCC1)c1ccccc1F (racemic)")
0.0
>>> classification("Cc1ccccc1NC(=O)C(Cc1ccc(O)cc1)NC(=O)c1ccccc1 (centres unmarked)")
0.0
>>> classification("CN1CCN(c2ccccc2NC(=O)C(Cc2ccccc2)NC(=O)c2ccccc2)CC1 (centres unmarked)")
0.0
>>> classification("Cc1ccc(F)cc1NC(=O)C(Cc1ccccc1)NC(=O)c1ccccc1Cl (centres unmarked)")
0.0
>>> classification("COc1cccc(NC(=O)C(Cc2ccccc2)NC(=O)c2ccccc2F)c1C (centres unmarked)")
1.0
>>> classification("Cc1ccc(F)cc1NC(=O)C(Cc1ccccc1)NC(=O)c1cccc2[nH]ccc12 (centres unmarked)")
0.0
>>> classification("O=C(NC(Cc1ccccc1)C(=O)Nc1cccc2ncccc12)c1ccccc1 (centres unmarked)")
1.0
>>> classification("Cc1ccccc1NC(=O)C(Cc1ccccc1)NC(=O)c1ccccc1C (centres unmarked)")
0.0
>>> classification("Cc1c(NC(=O)C(Cc2ccccc2)NC(=O)c2ccccc2)cccc1-n1cnnn1 (centres unmarked)")
1.0
>>> classification("O=C(NC(Cc1ccccc1)C(=O)Nc1cccc2[nH]nnc12)c1ccccc1 (centres unmarked)")
1.0
>>> classification("O=C(NC(Cc1ccc(O)cc1)C(=O)Nc1cccc2ccncc12)c1ccccc1 (centres unmarked)")
1.0
>>> classification("O=C(NC(Cc1ccccc1)C(=O)Nc1cccc2cnccc12)c1ccccc1 (centres unmarked)")
1.0
>>> classification("Cc1ccc(F)cc1NC(=O)C(Cc1ccc(O)cc1)NC(=O)c1ccccc1C (centres unmarked)")
1.0
>>> classification("COc1ccccc1NC(=O)C(Cc1ccc(O)cc1)NC(=O)c1ccccc1 (centres unmarked)")
1.0
>>> classification("O=C(NC(Cc1ccccc1)C(=O)Nc1cccc2[nH]ncc12)c1ccccc1 (centres unmarked)")
1.0
>>> classification("O=C(NC(Cc1ccccc1)C(=O)Nc1cccc2nc[nH]c12)c1ccccc1 (centres unmarked)")
1.0
>>> classification("Cc1c(NC(=O)C(Cc2ccccc2)NC(=O)c2ccccc2)cccc1-n1ccnn1 (centres unmarked)")
1.0
>>> classification("O=C(NC(Cc1ccc(O)cc1)C(=O)Nc1cccc2c1OCCO2)c1ccccc1Br (centres unmarked)")
1.0
>>> classification("O=C(NC(Cc1ccccc1)C(=O)Nc1ccccc1-n1cncn1)c1ccccc1 (centres unmarked)")
1.0
>>> classification("Cc1c(NC(=O)C(Cc2ccccc2)NC(=O)c2ccccc2)cccc1C(F)F (centres unmarked)")
0.0
>>> classification("COc1ccccc1NC(=O)C(Cc1ccccc1)NC(=O)c1ccccc1C (centres unmarked)")
0.0
>>> classification("O=C(NC(Cc1ccccc1)C(=O)Nc1cccc2cnccc12)c1cccs1 (centres unmarked)")
0.0
